- measured on: KRAS WT (Homo sapiens (Human), UniProt P01116+P62937)
- Sequence (P01116-2 other isoform, or with tags, fused parts or gaps, one chain of several): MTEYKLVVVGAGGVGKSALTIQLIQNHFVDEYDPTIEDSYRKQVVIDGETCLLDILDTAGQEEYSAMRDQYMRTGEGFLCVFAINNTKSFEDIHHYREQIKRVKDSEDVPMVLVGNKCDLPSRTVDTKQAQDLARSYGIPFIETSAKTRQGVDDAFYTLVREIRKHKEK
- assay protocol: Ras-Raf (BRAF RBD) disruption / FRET / MOA assay, KRAS WT
- Assay type: biochemical
- measurement parameters: read-out: IC50* KRAS WT FRET data
pIC50: −log10 of the molar value.
measured attribute: pIC50

| molecule | reported |
| --- | --- |
| C=C(OC)C(=O)N1CC(N(C)C(=O)N(C)[C@H](C(=O)N[C@H]2Cc3nc(cs3)-c3ccc4c(c3)c(c(-c3cccnc3[C@H](C)OC)n4CC)CC(C)(C)COC(=O)[C@@H]3CCCN(N3)C2=O)C(C)C)C1 (atropisomer, axis not shown) | 6.00 to 7.00 |
| CCn1c(-c2cncnc2)c2c3cc(ncc31)-c1cc(O)cc(c1)C[C@H](NC(=O)[C@H](C(C)C)N(C)C(=O)[C@H]1CCN(C(=O)C#CCN(C)C)C1)C(=O)N1CCC[C@H](N1)C(=O)OCC(C)(C)C2 | 5.00 to 6.00 |
| C=C(OC)C(=O)N1CC2(CCN(C(=O)N(C)[C@H](C(=O)N[C@H]3Cc4nc(cs4)-c4ccc5c(c4)c(c(-c4cccnc4[C@H](C)OC)n5CC)CC(C)(C)COC(=O)[C@@H]4CCCN(N4)C3=O)C(C)C)CC2)C1 (atropisomer, axis not shown) | 6.00 to 7.00 |

In the following, a different molecule is considered.
Incoming: I am curious: what pIC50 value has been reported for `CCn1c(-c2cccnc2COC)c2c3cc(ccc31)-c1cc(O)cc(c1)C[C@H](NC(=O)[C@H](C(C)C)N(C)C(=O)[C@H]1CCN(C(=O)C#CCN3[C@H](C)COC[C@@H]3C)C1)C(=O)N1CCC[C@H](N1)C(=O)OCC(C)(C)C2` ?
Outgoing: 5.00 to 6.00

###

- measured on: K-Ras G13C (Homo sapiens (Human), UniProt P01116+P62937, G13C)
- Sequence (P01116-2 other isoform, or with tags, fused parts or gaps G13C): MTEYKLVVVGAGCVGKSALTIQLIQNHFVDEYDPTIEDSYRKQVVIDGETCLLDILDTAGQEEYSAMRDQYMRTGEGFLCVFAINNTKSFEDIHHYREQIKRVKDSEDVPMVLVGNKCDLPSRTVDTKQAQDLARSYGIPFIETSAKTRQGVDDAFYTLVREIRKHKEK
- Sequence (P62937 whole entry): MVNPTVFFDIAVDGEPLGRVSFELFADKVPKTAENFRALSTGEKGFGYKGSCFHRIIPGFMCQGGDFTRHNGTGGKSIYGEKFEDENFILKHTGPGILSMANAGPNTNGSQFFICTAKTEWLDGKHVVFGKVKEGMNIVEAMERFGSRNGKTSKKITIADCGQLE
- assay protocol: Ras-Raf (BRAF RBD) disruption / FRET / MOA assay, KRAS G13C
- Format: biochemical
- measurement parameters: KRAS G13C; Ras-Raf disruption/FRET/MOA assay; read-out: IC50* KRAS G13C FRET data
pIC50: −log10 of the molar value.
Would you kindly list pIC50 for each of these compounds?

Some entries whose results are on file:
| compound | measured on | pIC50 |
| --- | --- | --- |
| C=CC(=O)N1CCN(C(=O)N(C)[C@H](C(=O)N[C@H]2Cc3nc(cs3)-c3ccc4c(c3)c(c(-c3cccnc3[C@H](C)OC)n4CC(F)(F)F)CC(C)(C)COC(=O)[C@@H]3CCCN(N3)C2=O)C(C)C)CC1 (atropisomer, axis not shown) [Example A465] | K-Ras G13C (Homo sapiens (Human), UniProt P01116+P62937, G13C) | 7.00 to 8.00 |
| CCn1c(-c2cccnc2[C@H](C)OC)c2c3cc(ccc31)-c1cccc(c1)C[C@H](NC(=O)[C@@H](COC1CN(C(=O)C#C[C@H]3COCCN3C)C1)C(C)C)C(=O)N1CCC[C@H](N1)C(=O)OCC(C)(C)C2 (atropisomer, axis not shown) [Example A644] | K-Ras G13C (Homo sapiens (Human), UniProt P01116+P62937, G13C) | 5.00 to 6.00 |
| C=CC(=O)N1CCCN(C(=O)N(C)[C@H](C(=O)N[C@H]2Cc3cc(O)cc(c3)-c3ccc4c(c3)c(c(-c3cccnc3[C@H](C)OC)n4CC)CC(C)(C)COC(=O)[C@@H]3CCCN(N3)C2=O)C(C)C)CC1 (atropisomer, axis not shown) [Example A265] | K-Ras G13C (Homo sapiens (Human), UniProt P01116+P62937, G13C) | 7.00 to 8.00 |
| CC#CC(=O)N1CC[C@H](C(=O)N(C)[C@H](C(=O)N[C@H]2Cc3cccc(c3)-c3ccc4c(c3)c(c(-c3cccnc3[C@H](C)OC)n4CC)CC(C)(C)COC(=O)[C@@H]3CCCN(N3)C2=O)C(C)C)C1 (atropisomer, axis not shown) [Example A173] | K-Ras G13C (Homo sapiens (Human), UniProt P01116+P62937, G13C) | < 5.00 |
| C#CCn1c(-c2cccnc2[C@H](C)OC)c2c3cc(ccc31)-c1cccc(c1)C[C@H](NC(=O)[C@H](C(C)C)N(C)C(=O)[C@H]1CCN(C(=O)C=C)C1)C(=O)N1CCC[C@H](N1)C(=O)OCC(C)(C)C2 (atropisomer, axis not shown) [Example A530] | K-Ras G13C (Homo sapiens (Human), UniProt P01116+P62937, G13C) | 5.00 to 6.00 |
| CCn1c(-c2cnccc2C(C)C)c2c3cc(ccc31)-c1cc(O)cc(c1)C[C@H](NC(=O)[C@H](C(C)C)N(C)C(=O)[C@H]1CCN(C(=O)C#CCN(C)C)C1)C(=O)N1CCC[C@H](N1)C(=O)OCC(C)(C)C2 [Example A141] | K-Ras G13C (Homo sapiens (Human), UniProt P01116+P62937, G13C) | 7.00 to 8.00 |
| C=CC(=O)N(C)C[C@H]1CCN(C(=O)N(C)[C@H](C(=O)N[C@H]2Cc3nc(cs3)-c3ccc4c(c3)c(c(-c3cccnc3[C@H](C)OC)n4CC)CC(C)(C)COC(=O)[C@@H]3CCCN(N3)C2=O)C(C)C)C1 (atropisomer, axis not shown) [Example A653] | K-Ras G13C (Homo sapiens (Human), UniProt P01116+P62937, G13C) | 6.00 to 7.00 |

In the following, a different compound is considered.
Incoming: I am curious: what pIC50 value has been reported for C=CC(=O)Nc1cnc(C(=O)N(C)[C@H](C(=O)N[C@H]2Cc3cccc(c3)-c3ccc4c(c3)c(c(-c3cccnc3[C@H](C)OC)n4CC)CC(C)(C)COC(=O)[C@@H]3CCCN(N3)C2=O)C(C)C)n1C (atropisomer, axis not shown) [Example A525] ?
Outgoing: 7.00 to 8.00
